# target: Human P2X2 receptor (P2X2R) (Homo sapiens, UniProt Q9UBL9)
# Construct: expressed in transfected cells; host or cells: HEK-293
# Sequence (Q9UBL9 1-471): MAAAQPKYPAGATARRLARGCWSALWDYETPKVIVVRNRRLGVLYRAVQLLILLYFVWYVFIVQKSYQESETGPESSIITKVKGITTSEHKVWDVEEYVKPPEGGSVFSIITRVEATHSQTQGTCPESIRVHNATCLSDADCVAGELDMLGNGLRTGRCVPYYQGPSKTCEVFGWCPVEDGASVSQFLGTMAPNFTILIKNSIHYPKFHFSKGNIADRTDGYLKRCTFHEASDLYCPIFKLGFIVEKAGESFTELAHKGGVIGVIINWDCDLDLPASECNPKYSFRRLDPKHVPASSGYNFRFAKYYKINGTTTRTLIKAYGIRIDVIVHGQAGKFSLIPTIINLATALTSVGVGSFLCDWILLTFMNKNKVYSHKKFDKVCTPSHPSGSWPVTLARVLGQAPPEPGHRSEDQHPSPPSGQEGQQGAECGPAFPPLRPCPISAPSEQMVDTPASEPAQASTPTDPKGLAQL
# protocol_details: Yo-Pro-1 uptake assay, P2X2R transfected HEK-293 cells
# Format: cell-based
# assay_setup: HEK293, compound at 5 μM, 5 μM ATP stimulus, read-out: Percentage of activity remains in the presence of the compound at 5 μM, P2X2R (Yo-Pro-1 Assay)
# Description: Yo-Pro-1 Iodide (Cat. No Y3603 from Fisher Scientific) is a fluorescent DNA-binding dye with a MW of 629 Da. This method is based upon the Yo-Pro-1 entrance to cells through the dilated or “large pore form” of P2X7R and its binding to intracellular DNA whereby it increases its fluorescence intensity (J. Pharmacol. Exp. Ther. 308, 1053-1061). […] This Yo-Pro-1 uptake was measured in HEK-293 cells transiently transfected with P2X7R (J. Biol. Chem. 290, 7930-7942). […]
experimental_endpoint: remaining activity at 5 µM (%)

Reference set (2 entries):
compound | target | remaining activity at 5 µM [%]
CC(C)S(=O)(=O)c1ccc(N2CCCC(NC(=O)CCc3ccccc3)C2)cc1 (stereo not drawn) [#7] | Human P2X2 receptor (P2X2R) (Homo sapiens, UniProt Q9UBL9) | 77.6
COc1ccc(S(=O)(=O)N2CCCC(NC(=O)CCc3ccccc3)C2)cc1 (stereo not drawn) [#2] | Human P2X2 receptor (P2X2R) (Homo sapiens, UniProt Q9UBL9) | 54.6

(a) O=C(CCc1ccccc1)N1CCN(S(=O)(=O)c2ccc(N3CCCC3)cc2)CC1 [#35]
(b) O=C(CCc1ccccc1)NC1CCCN(S(=O)(=O)c2ccc(N3CCC(F)(F)CC3)cc2)C1 (stereo not drawn) [#46]
Challenge: In terms of reported remaining activity at 5 µM, does a or b have the smaller number? Lab note: record the label of whichever item you select.
Response given: b

(A) O=C(CCc1ccccc1)NC1CCCN(S(=O)(=O)c2ccc(N3CCC(C(F)(F)F)CC3)cc2)C1 (stereo not drawn) [#42]
(B) CCCCNc1ccc(S(=O)(=O)N2CCCC(NC(=O)CCc3ccccc3)C2)cc1 (stereo not drawn) [#15]
Challenge: Pick the one with the larger remaining activity at 5 µM: A vs B Answer = label.
Response given: B

====

# target: P2X2R (Homo sapiens)
# Construct: expressed in transfected cells; host or cells: HEK-293
# protocol_details: Receptor-mediated calcium entrance assay (Calcium Assay), P2X2R
# Assay type: cell-based
# assay_setup: compound at 5 μM, read-out: Percentage of activity remains in the presence of the compound at 5 μM, P2X2R (Calcium Assay)
experimental_endpoint: remaining activity at 5 µM (%)

(P) O=C(CCc1ccccc1)NC1CCCN(c2ccc(S(=O)(=O)N3CCCCC3)cc2)C1 (stereo not drawn) [#54]
(Q) O=C(CCc1ccccc1)NC1CCCN(S(=O)(=O)c2ccc(N3CCCCC3)cc2)C1 (stereo not drawn) [#5]
Challenge: Hi, I'm comparing two records. Which one has the lower remaining activity at 5 µM, P or Q ? # respond with the chosen item's label
Response given: P
